# Tested on: 817829-284-R-J1-PDC complex spheroids, viability
# Assay text: Anticancer human tumor 817829-284-R-J1-PDC patient-derived colon adenocarcinoma cell line growth inhibition [CLK]
# Study conditions: second compound 0.0316 µM; first compound 3.16 µM; hits give low values
Quick reference for viability, T/C among some compounds
Give the value, in units of %, as a plain number.

Past entries and their recorded results:
{"Compound": "O=c1[nH]cc(F)c(=O)[nH]1 + CNC(=O)c1ccc(Nc2nc(OC3CCCC3)c3c(-c4ccc5nc(C)oc5c4)c[nH]c3n2)c(OC)c1", "viability, T/C [%]": 29.1}
{"Compound": "CC(CO)NC(=O)c1cc(-c2ccc(Cl)cc2)nn(-c2cnn(C)c2)c1=O (stereo unspecified) + CNC(=O)c1ccc(Nc2nc(OC3CCCC3)c3c(-c4ccc5nc(C)oc5c4)c[nH]c3n2)c(OC)c1", "viability, T/C [%]": 28.5}

# query: viability, T/C of entry C=C(F)C(=O)N1CCN(c2nc(OCC3CCCN3C)nc3c2CCN(c2cccc4cccc(Cl)c24)C3)CC1CC#N (stereo unspecified) + CNC(=O)c1ccc(Nc2nc(OC3CCCC3)c3c(-c4ccc5nc(C)oc5c4)c[nH]c3n2)c(OC)c1
17.6

What would you report for COC1C=CCC(C)C(C)S(=O)(=O)NC(=O)c2ccc3c(c2)N(CC2CCC21)CC1(CCCc2cc(Cl)ccc21)CO3 (stereo unspecified) + CN1CCN(c2cc(C(=O)Nc3cc4cc(-c5cnn(C)c5)ccc4cn3)ccn2)CC1 ?
28.2

What would you report for CC(CO)NC(=O)c1cc(-c2ccc(Cl)cc2)nn(-c2cnn(C)c2)c1=O (stereo unspecified) + CN1CCN(c2cc(C(=O)Nc3cc4cc(-c5cnn(C)c5)ccc4cn3)ccn2)CC1 ?
53.1

What would you report for O=C(c1cc(Cc2n[nH]c(=O)c3ccccc23)ccc1F)N1CCN(C(=O)C2CC2)CC1 + CN1CCN(c2cc(C(=O)Nc3cc4cc(-c5cnn(C)c5)ccc4cn3)ccn2)CC1 ?
36.7

###

# Test system: 817829-284-R-J1-PDC complex spheroids, viability
# Assay text: Anticancer human tumor 817829-284-R-J1-PDC cell line growth inhibition [CLK];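 also: spheroids exposed to the agents for seven days before readout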
# Study conditions: second compound 0.316 µM; first compound 10 µM; hits give low values
Endpoint name: viability, T/C (%)
Give the value, in units of %, as a plain number.

Past entries and their recorded results:
{"Compound": "O=c1[nH]cc(F)c(=O)[nH]1 + CN1CCN(c2cc(C(=O)Nc3cc4cc(-c5cnn(C)c5)ccc4cn3)ccn2)CC1", "Target": "817829-284-R-J1-PDC complex spheroids, viability", "Unit info": "%", "viability, T/C": 2.06}
{"Compound": "COc1cccc2c1C(=O)c1c(O)c3c(c(O)c1C2=O)CC(O)(C(=O)CO)CC3OC1CC(N)C(O)C(C)O1 (stereo unspecified) + CN1CCN(c2cc(C(=O)Nc3cc4cc(-c5cnn(C)c5)ccc4cn3)ccn2)CC1", "Target": "817829-284-R-J1-PDC complex spheroids, viability", "Unit info": "%", "viability, T/C": 0.97}
{"Compound": "C=CC(=O)N1CCN(c2nc(=O)n(-c3c(C)ccnc3C(C)C)c3nc(-c4c(O)cccc4F)c(F)cc23)C(C)C1 (stereo unspecified) + CNC(=O)c1ccc(Nc2nc(OC3CCCC3)c3c(-c4ccc5nc(C)oc5c4)c[nH]c3n2)c(OC)c1", "Target": "817829-284-R-J1-PDC complex spheroids, viability", "Unit info": "%", "viability, T/C": 17.4}
{"Compound": "Nc1ccccc1NC(=O)c1ccc(CNC(=O)OCc2cccnc2)cc1 + CN1CCN(c2cc(C(=O)Nc3cc4cc(-c5cnn(C)c5)ccc4cn3)ccn2)CC1", "Target": "817829-284-R-J1-PDC complex spheroids, viability", "Unit info": "%", "viability, T/C": 0.03}
{"Compound": "CC(Nc1ccc2c(c1)OCCn1cc(N3C(=O)OCC3C(F)F)nc1-2)C(N)=O (stereo unspecified) + CNC(=O)c1ccc(Nc2nc(OC3CCCC3)c3c(-c4ccc5nc(C)oc5c4)c[nH]c3n2)c(OC)c1", "Target": "817829-284-R-J1-PDC complex spheroids, viability", "Unit info": "%", "viability, T/C": 15.5}

Could you now look at the following compound, please?
Provide value of viability, T/C for this record tested with 817829-284-R-J1-PDC complex spheroids, viability: CCCS(=O)(=O)Nc1ccc(F)c(C(=O)c2c[nH]c3ncc(-c4ccc(Cl)cc4)cc23)c1F + CN1CCN(c2cc(C(=O)Nc3cc4cc(-c5cnn(C)c5)ccc4cn3)ccn2)CC1
0.66

###

Quick reference for viability, T/C among some molecules
# Test system: 817829-284-R-J1-PDC complex spheroids, viability
# Assay text: Anticancer human tumor 817829-284-R-J1-PDC cell line growth inhibition [CLK];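 also: spheroids exposed to the agents for seven days before readout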
# Study conditions: second compound 1 µM; first compound 0.01 µM; hits give low values
Give the value, in units of %, as a plain number.

{"Molecule": "CCc1c2c(nc3ccc(O)cc13)-c1cc3c(c(=O)n1C2)COC(=O)[C@]3(O)CC + CNC(=O)c1ccc(Nc2nc(OC3CCCC3)c3c(-c4ccc5nc(C)oc5c4)c[nH]c3n2)c(OC)c1", "Endpoint name": "viability, T/C", "Unit info": "%", "Value reported": 12.4}
{"Molecule": "COc1c(OCCCN2CCOCC2)ccc2c3n(c(=NC(=O)c4cnc(N)nc4)nc12)CCN3 + CN1CCN(c2cc(C(=O)Nc3cc4cc(-c5cnn(C)c5)ccc4cn3)ccn2)CC1", "Endpoint name": "viability, T/C", "Unit info": "%", "Value reported": 0.11}
{"Molecule": "Cn1ncnc1[C@H]1c2n[nH]c(=O)c3cc(F)cc(c23)N[C@@H]1c1ccc(F)cc1 + CN1CCN(c2cc(C(=O)Nc3cc4cc(-c5cnn(C)c5)ccc4cn3)ccn2)CC1", "Endpoint name": "viability, T/C", "Unit info": "%", "Value reported": 0.09}
{"Molecule": "CCc1c2c(nc3ccc(O)cc13)-c1cc3c(c(=O)n1C2)COC(=O)[C@]3(O)CC + CN1CCN(c2cc(C(=O)Nc3cc4cc(-c5cnn(C)c5)ccc4cn3)ccn2)CC1", "Endpoint name": "viability, T/C", "Unit info": "%", "Value reported": 0.12}
{"Molecule": "CCN1CCN(Cc2ccc(Nc3ncc(F)c(-c4cc(F)c5nc(C)n(C(C)C)c5c4)n3)nc2)CC1 + CN1CCN(c2cc(C(=O)Nc3cc4cc(-c5cnn(C)c5)ccc4cn3)ccn2)CC1", "Endpoint name": "viability, T/C", "Unit info": "%", "Value reported": 0.12}

# query: viability, T/C of entry Cn1ncnc1[C@H]1c2n[nH]c(=O)c3cc(F)cc(c23)N[C@@H]1c1ccc(F)cc1 + CNC(=O)c1ccc(Nc2nc(OC3CCCC3)c3c(-c4ccc5nc(C)oc5c4)c[nH]c3n2)c(OC)c1
17.3

What would you report for COc1c(OCCCN2CCOCC2)ccc2c3n(c(=NC(=O)c4cnc(N)nc4)nc12)CCN3 + CNC(=O)c1ccc(Nc2nc(OC3CCCC3)c3c(-c4ccc5nc(C)oc5c4)c[nH]c3n2)c(OC)c1 ?
20.5

###

# Tested on: 817829-284-R-J1-PDC complex spheroids, viability
# Assay text: Anticancer human tumor 817829-284-R-J1-PDC cell line growth inhibition [CLK]; active = viability on the fitted dose curve at most 10% of control; inactive = the rest;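 also: spheroids exposed to the agents for seven days before readout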
# Study conditions: second compound 0.316 µM; first compound 10 µM
Log the outcome using a class from t for active, f for inactive

Solved cases below.
{"Compound": "COc1ccc([C@@H](O)c2cc(-c3ncnc4cc(N5CCOCC5)ccc34)c(F)cc2Cl)nn1 + CN1CCN(c2cc(C(=O)Nc3cc4cc(-c5cnn(C)c5)ccc4cn3)ccn2)CC1", "Class name": "t"}
{"Compound": "CC(=O)O[C@H]1C(=O)[C@@]2(C)[C@H]([C@H](OC(=O)c3ccccc3)[C@]3(O)C[C@H](OC(=O)[C@H](O)[C@@H](NC(=O)c4ccccc4)c4ccccc4)C(C)=C1C3(C)C)[C@]1(OC(C)=O)CO[C@@H]1C[C@@H]2O + CN1CCN(c2cc(C(=O)Nc3cc4cc(-c5cnn(C)c5)ccc4cn3)ccn2)CC1", "Class name": "t"}
{"Compound": "CC(CO)NC(=O)c1cc(-c2ccc(Cl)cc2)nn(-c2cnn(C)c2)c1=O (stereo not drawn) + CN1CCN(c2cc(C(=O)Nc3cc4cc(-c5cnn(C)c5)ccc4cn3)ccn2)CC1", "Class name": "t"}
{"Compound": "CC1(C)CCC(CN2CCN(c3ccc(C(=O)NS(=O)(=O)c4ccc(NCC5CCOCC5)c([N+](=O)[O-])c4)c(Oc4cnc5[nH]ccc5c4)c3)CC2)=C(c2ccc(Cl)cc2)C1 + CN1CCN(c2cc(C(=O)Nc3cc4cc(-c5cnn(C)c5)ccc4cn3)ccn2)CC1", "Class name": "t"}
{"Compound": "Nc1ccn(C2OC(CO)C(O)C2(F)F)c(=O)n1 (stereo not drawn) + CNC(=O)c1ccc(Nc2nc(OC3CCCC3)c3c(-c4ccc5nc(C)oc5c4)c[nH]c3n2)c(OC)c1", "Class name": "t"}

Outcome logged for C=CC(=O)N1CCN(c2nc(=O)n(-c3c(C)ccnc3C(C)C)c3nc(-c4c(O)cccc4F)c(F)cc23)C(C)C1 (stereo not drawn) + CN1CCN(c2cc(C(=O)Nc3cc4cc(-c5cnn(C)c5)ccc4cn3)ccn2)CC1 in this assay:
t

What would you report for C=C(F)C(=O)N1CCN(c2nc(OCC3CCCN3C)nc3c2CCN(c2cccc4cccc(Cl)c24)C3)CC1CC#N (stereo not drawn) + CNC(=O)c1ccc(Nc2nc(OC3CCCC3)c3c(-c4ccc5nc(C)oc5c4)c[nH]c3n2)c(OC)c1 ?
t

What would you report for CCCS(=O)(=O)Nc1ccc(F)c(C(=O)c2c[nH]c3ncc(-c4ccc(Cl)cc4)cc23)c1F + CNC(=O)c1ccc(Nc2nc(OC3CCCC3)c3c(-c4ccc5nc(C)oc5c4)c[nH]c3n2)c(OC)c1 ?
f
